src = the supplement of paper PMC11579375

Reported area under the viability dose-response curve by item:
- Tested on: 17F1 (fetal-I hepatoblastoma organoid with intermediate liver markers)
- EXPERIMENT_DESCRIPTION: area under the viability dose-response curve (AUC) (AUC (arbitrary units, max 500 = no viability loss)); higher = less sensitive (higher viability)
- STUDY_CONDITIONS: exposure time: 120 h; concentration range: 0.1 nM - 10 µM, 6 doses
OBSERVED_PROPERTY: area under the viability dose-response curve

CHEMICAL_SMILES	LIMIT_OPERATOR	READOUT_VALUE
COc1ccc(Cn2ccc3ccc(C(=O)NO)cc32)cc1	=	484
COc1cc2/c(=N/c3ccc(Br)cc3F)nc[nH]c2cc1OCC1CCN(C)CC1	=	449
NC(=O)c1cccc2cn(-c3ccc([C@@H]4CCCNC4)cc3)nc12	=	490
COc1cc2nccc(Oc3ccc(NC(=O)NC4CC4)c(Cl)c3)c2cc1C(N)=O	>	500
C=CC(=O)N1CC[C@H](n2nc(C#Cc3cc(OC)cc(OC)c3)c3c(N)ncnc32)C1	>	500
CN(C)C(=O)c1cc2cnc(Nc3ccc(N4CCNCC4)cn3)nc2n1C1CCCC1	=	473
CC(=O)O[C@@]12CO[C@@H]1C[C@H](O)[C@@]1(C)C(=O)[C@H](O)C3=C(C)[C@@H](OC(=O)[C@H](O)[C@@H](NC(=O)OC(C)(C)C)c4ccccc4)C[C@@](O)([C@@H](OC(=O)c4ccccc4)[C@H]21)C3(C)C	=	255

* * *

- Test system: 135F2 (fetal-II hepatoblastoma organoid with high liver markers)
- EXPERIMENT_DESCRIPTION: area under the viability dose-response curve (AUC) (AUC (arbitrary units, max 500 = no viability loss)); higher = less sensitive (higher viability)
- STUDY_CONDITIONS: exposure time: 120 h; concentration range: 0.1 nM - 10 µM, 6 doses
OBSERVED_PROPERTY: area under the viability dose-response curve

COMPOUND	LIMIT_OPERATOR	READOUT_VALUE
COc1cc([C@@H]2c3cc4c(cc3[C@@H](O[C@@H]3O[C@@H]5CO[C@@H](C)O[C@H]5[C@H](O)[C@H]3O)[C@H]3COC(=O)[C@H]23)OCO4)cc(OC)c1O [Etoposide]	=	389
Cc1cnc(CNC(=O)c2c(=O)c3ccc(N4CCCN(C)CC4)nc3n3c2sc2ccccc23)cn1 [Pidnarulex]	=	402
Nc1cc(C(F)(F)F)c(-c2cc(N3CCOCC3)nc(N3CCOCC3)n2)cn1 [Buparlisib]	=	440
C=CC(=O)N1CCC[C@@H](n2nc(-c3ccc(Oc4ccccc4)cc3)c3c(N)ncnc32)C1 [Ibrutinib]	=	455
CO[C@H]1C[C@@H]2CC[C@@H](C)[C@@](O)(O2)C(=O)C(=O)N2CCCC[C@H]2C(=O)O[C@H]([C@H](C)C[C@@H]2CC[C@@H](O)[C@H](OC)C2)CC(=O)[C@H](C)/C=C(\C)[C@@H](O)[C@@H](OC)C(=O)[C@H](C)C[C@H](C)/C=C/C=C/C=C/1C [Sirolimus]	=	464
CNCc1ccc(-c2[nH]c3cc(F)cc4c3c2CCNC4=O)cc1 [Rucaparib]	=	452
C[C@@H]1CN(CC(=O)Nc2ccc3c(c2)Cc2cccc(-c4cc(=O)cc(N5CCOCC5)o4)c2S3)C[C@H](C)O1	=	470
C[C@]12CCCN1CC1=NNC(=O)c3cc(F)cc4[nH]c2c1c34 [Pamiparib]	=	478
CN[C@@H](C)C(=O)N[C@H]1CN(C(=O)CC(C)C)CC[C@H]2CC[C@@H](C(=O)NC(c3ccccc3)c3ccccc3)N2C1=O [Xevinapant]	>	500
CC[C@H](Nc1nc(NCc2cnc(C)cc2C)c2ncn(C(C)C)c2n1)[C@@H](C)O [CYC065]	=	387
CCN1CCN(Cc2ccc(Nc3ncc(F)c(-c4cc(F)c5nc(C)n(C(C)C)c5c4)n3)nc2)CC1 [Abemaciclib]	=	360
CC(C)C[C@H](NC(=O)CNC(=O)c1cc(Cl)ccc1Cl)B(O)O [Ixazomib]	=	261
C[C@@H](Oc1cc(-n2cnc3ccc(CN4CCN(C)CC4)cc32)sc1C(N)=O)c1ccccc1C(F)(F)F	=	254
C/C=C1\NC(=O)[C@H]2CSSCC/C=C/[C@H](CC(=O)N[C@H](C(C)C)C(=O)N2)OC(=O)[C@H](C(C)C)NC1=O [Romidepsin]	=	137
CNC(=O)c1cccc(-c2ccc3c(N4CCOC[C@@H]4C)nc(N4CCOC[C@@H]4C)nc3n2)c1 [Vistusertib]	=	407
CC[C@]1(O)C[C@@H]2CN(CCc3c([nH]c4ccccc34)[C@@](C(=O)OC)(c3cc4c(cc3OC)N(C)[C@H]3[C@@](O)(C(=O)OC)[C@H](OC(C)=O)[C@]5(CC)C=CCN6CC[C@]43[C@@H]65)C2)C1 [Vinblastine]	=	176
CC[C@H](Nc1ncnc2[nH]cnc12)c1nc2cccc(F)c2c(=O)n1-c1ccccc1 [Idelalisib]	>	500
c1cn2cc(-c3ccc4cn[nH]c4c3)nc(Nc3ccc(N4CCOCC4)cc3)c2n1 [Entospletinib]	=	481
O=c1[nH]c(=O)n([C@@H]2O[C@H](CO)[C@@H](O)[C@H]2O)cc1F [5-Fluorouridine]	=	303
Nc1ccccc1NC(=O)c1ccc(CNC(=O)OCc2cccnc2)cc1 [Entinostat]	=	455
Nc1ccn([C@@H]2O[C@H](CO)[C@@H](O)[C@@H]2O)c(=O)n1 [Cytarabine]	=	403
C[C@@H](c1ccc2nccn2c1)n1nnc2ncc(-c3cnn(C)c3)nc21 [Savolitinib]	=	497
COCc1c(-c2cc3cc(C)cc(OC)c3s2)c2c(N)ncnn2c1CN1CCNC(=O)C1 [Rogaratinib]	=	473
COc1cc2nccc(Oc3ccc(NC(=O)C4(C(=O)Nc5ccc(F)cc5)CC4)cc3)c2cc1OC [Cabozantinib]	=	491
CN1CCN(CCOc2cc(OC3CCOCC3)c3c(Nc4c(Cl)ccc5c4OCO5)ncnc3c2)CC1 [Saracatinib]	=	478
Nc1ccn([C@@H]2O[C@H](CO)[C@@H](O)C2(F)F)c(=O)n1 [Gemcitabine]	=	237
CN(C)C(=O)c1cc2cnc(Nc3ccc(N4CCNCC4)cn3)nc2n1C1CCCC1 [Ribociclib]	=	461
CCn1c(-c2nonc2N)nc2cnc(Oc3cccc(NC(=O)c4ccc(OCCN5CCOCC5)cc4)c3)cc21	=	441
CC1(C)CCC2(CC1)N[C@@H](C(=O)N[C@@H]1CC[C@@H](C(N)=O)OC1)[C@H](c1ccnc(Cl)c1F)[C@]21C(=O)Nc2cc(Cl)ccc21 [Milademetan]	=	341
